// data source = patent US7803810B2

assayed system: UniProtKB Q16769
pIC50: −log10 of the molar value.
measured property: pIC50

compound: c1ccc(-c2cccc(-c3cccn4cncc34)c2)cc1 [Example 19, 8-(biphen-3-yl)H-imidazo[1,5-a]pyridine]
test value: 4.96
//
compound: CC(C)Cc1cccn2cncc12 [Example 3, 8-isobutylH-imidazo[1,5-a]pyridine]
test value: 4.70
//
compound: COc1ccc(-c2cccn3cncc23)cc1OC [Example 26]
test value: 4.81

A: COc1ccccc1-c1cccn2cncc12 [Example 12]
B: c1ccc(COc2ccccc2-c2cccn3cncc23)cc1 [Example 15]
Q: Compare the recorded pIC50 of A and B ; state which is larger. State the label of the item chosen.
A: A

###

assayed system: glutaminyl cyclase (QC) (Homo sapiens, UniProt Q16769)
Sequence (Q16769 29-361): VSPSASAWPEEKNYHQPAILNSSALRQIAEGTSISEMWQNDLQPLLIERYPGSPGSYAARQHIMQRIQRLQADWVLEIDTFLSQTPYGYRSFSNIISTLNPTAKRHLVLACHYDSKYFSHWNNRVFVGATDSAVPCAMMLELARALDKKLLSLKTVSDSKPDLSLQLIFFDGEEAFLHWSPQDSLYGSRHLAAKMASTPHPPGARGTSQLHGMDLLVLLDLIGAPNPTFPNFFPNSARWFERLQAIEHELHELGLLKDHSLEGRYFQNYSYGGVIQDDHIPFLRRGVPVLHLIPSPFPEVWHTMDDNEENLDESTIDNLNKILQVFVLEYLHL
pKi: −log10 of the molar value.
measured property: pKi

molecule: COc1ccc(-c2cccn3cncc23)cc1OC
pKi: 5.03

molecule: c1cc(-c2ccc3c(c2)OCCO3)c2cncn2c1
pKi: 5.92

A: COc1ccccc1-c1cccn2cncc12
B: Clc1ccccc1-c1cccn2cncc12
Q: Kindly identify the item with the lower pKi figure among these two: A and B State the label of the item chosen.
A: B
(B: 4.82, A: 5.40)

a: CCOc1ccc(-c2cccn3cncc23)cc1
b: c1ccc(COc2ccccc2-c2cccn3cncc23)cc1
Q: Compare the recorded pKi of a and b ; state which is larger. State the label of the item chosen.
A: a
(a: 5.72, b: 5.27)

###

# pIC50 per entry for UniProt Q16769
pIC50: −log10 of the molar value.
measured property: pIC50

Example entries begin here.
compound: COc1ccc(-c2cccn3cncc23)cc1C
pIC50: 4.58
--
compound: CCOc1ccc(-c2cccn3cncc23)cc1
pIC50: 4.84

a: c1ccc(Cc2cccn3cncc23)cc1 [Example 2, 8-benzylH-imidazo[1,5-a]pyridine]
b: c1ccc(COc2ccc(-c3cccn4cncc34)cc2)cc1
c: Fc1cccc(-c2cccn3cncc23)c1
Q: Ordering: ascending pIC50. Give the order by naming the labels one after another as requested.
A: a, c, b
(a: 4.72, c: 5.01, b: 5.36)

###

assayed system: glutaminyl cyclase (QC) (Homo sapiens)
measured property: Ki (µM)

molecule: c1ccc(-c2cccc(-c3cccn4cncc34)c2)cc1 [Example 19, 8-(biphen-3-yl)H-imidazo[1,5-a]pyridine]
measured property: Ki
test value: 2.51

A: Fc1ccc(-c2cccn3cncc23)cc1
B: Fc1ccccc1-c1cccn2cncc12
C: c1ccc(-c2ccccc2-c2cccn3cncc23)cc1 [Example 18, 8-(biphen-2-yl)H-imidazo[1,5-a]pyridine]
D: COc1cccc(-c2cccn3cncc23)c1
Q: Ordering criterion: Ki; begin with the maximum. Give the order by naming the labels one after another as requested.
A: C, B, A, D
